Here the recorded RUNX1 binding intensity is given for each entry.
- measured.target: RUNX1 (UniProt Q01196)
- Sequence (Q01196 whole entry): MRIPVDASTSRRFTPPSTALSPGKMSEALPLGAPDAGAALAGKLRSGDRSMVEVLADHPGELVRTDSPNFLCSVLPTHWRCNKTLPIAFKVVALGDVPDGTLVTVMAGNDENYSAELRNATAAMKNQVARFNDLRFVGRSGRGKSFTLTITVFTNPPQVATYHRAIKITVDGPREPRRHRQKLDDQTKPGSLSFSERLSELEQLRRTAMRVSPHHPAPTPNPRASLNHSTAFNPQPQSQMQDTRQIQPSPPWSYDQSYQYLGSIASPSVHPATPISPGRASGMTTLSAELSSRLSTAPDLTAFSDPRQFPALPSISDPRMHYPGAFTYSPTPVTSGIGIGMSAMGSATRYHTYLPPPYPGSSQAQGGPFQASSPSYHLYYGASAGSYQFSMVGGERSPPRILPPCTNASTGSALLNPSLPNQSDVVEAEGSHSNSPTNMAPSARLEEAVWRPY
- experiment.description: RUNX1 binding intensity (PBM fluorescence), RUNX1 alone (arbitrary fluorescence units); higher = stronger binding
- condition.summary: RUNX1 concentration 2 nM; ETS1 concentration 0 nM

>  <seq.text>
TGCTGCAGCGGCGCTTCCTGGTGGTCAGGGCGCCAT

>  <measured.target>
RUNX1 (UniProt Q01196)

>  <RUNX1 binding intensity>
707

$$$$
>  <seq.text>
AAGTTGATTTCCGGGTAGTCTGTGGTTTCCTAATCA

>  <measured.target>
RUNX1 (UniProt Q01196)

>  <RUNX1 binding intensity>
1210

$$$$
>  <seq.text>
CTGGGGAGGAAGCCTGAGGTGTGTGGTTTTGTTAAC

>  <measured.target>
RUNX1 (UniProt Q01196)

>  <RUNX1 binding intensity>
1040

$$$$
>  <seq.text>
GAGTCGCTTCCGCTCCCGCCCCGCTCTGTGGCGTAG

>  <measured.target>
RUNX1 (UniProt Q01196)

>  <RUNX1 binding intensity>
748

$$$$
>  <seq.text>
GGGGCTGTGCTTCCGGCTGTTTGTGCGGTTTTGTGC

>  <measured.target>
RUNX1 (UniProt Q01196)

>  <RUNX1 binding intensity>
1520

$$$$
>  <seq.text>
AGGTTCCGGCGAAAGTGACCGAAAGTAACCGCCGGG

>  <measured.target>
RUNX1 (UniProt Q01196)

>  <RUNX1 binding intensity>
670

$$$$
>  <seq.text>
AGATTTTGTCTTCCTGTTGTGGCAACATCTGTAGAA

>  <measured.target>
RUNX1 (UniProt Q01196)

>  <RUNX1 binding intensity>
1210

$$$$
>  <seq.text>
CAGGTGTTCAGGAAACAAAACCACAGACTTTTTCAC

>  <measured.target>
RUNX1 (UniProt Q01196)

>  <RUNX1 binding intensity>
4690

$$$$
>  <seq.text>
ACCCCGGAAGTGTGGGCGCGGCTGCGGTTTAACCCG

>  <measured.target>
RUNX1 (UniProt Q01196)

>  <RUNX1 binding intensity>
2220

$$$$
>  <seq.text>
ATGTTAACATCCTGCCATGAAAACCGCAAGAAGGGC

>  <measured.target>
RUNX1 (UniProt Q01196)

>  <RUNX1 binding intensity>
19000

$$$$
>  <seq.text>
AGTACGATGGGAGGAAGTGGTTTGTAAGAGGAGGAC

>  <measured.target>
RUNX1 (UniProt Q01196)

>  <RUNX1 binding intensity>
640

$$$$
>  <seq.text>
CAGGCTGCTTCCGGCGCGCGGCAGAGCGGTCAGAGC

>  <measured.target>
RUNX1 (UniProt Q01196)

>  <RUNX1 binding intensity>
714

$$$$

----------
- measured.target: RUNX1 (UniProt Q01196)
- experiment.description: RUNX1 binding intensity (PBM fluorescence) in presence of ETS1, normalised to RUNX1-only experiment (arbitrary fluorescence units); higher = stronger binding
- condition.summary: RUNX1 concentration 2 nM; ETS1 concentration 25 nM
Measured RUNX1 binding intensity, listed per entry.

>  <seq.text>
GCCCAGTTCTCGCATCCGGTCTGCGGCGCGCTCGGG

>  <measured.target>
RUNX1 (UniProt Q01196)

>  <RUNX1 binding intensity>
1840

$$$$
>  <seq.text>
CGTCTAATTGCAGGAAGTGGTTTGAAATGTTAATCT

>  <measured.target>
RUNX1 (UniProt Q01196)

>  <RUNX1 binding intensity>
3650

$$$$
>  <seq.text>
GCAAGGCAACAGGAAATTGTGGGGAAATTTTAAAAA

>  <measured.target>
RUNX1 (UniProt Q01196)

>  <RUNX1 binding intensity>
1070

$$$$
>  <seq.text>
ACCTGAGCAGGAAGTAGCTGAGGTCGCGGTGCAGCA

>  <measured.target>
RUNX1 (UniProt Q01196)

>  <RUNX1 binding intensity>
1080

$$$$
>  <seq.text>
AGGGAAGCAGGAAGTGACTGCGGGAGTGGAGCCGGC

>  <measured.target>
RUNX1 (UniProt Q01196)

>  <RUNX1 binding intensity>
1080

$$$$
>  <seq.text>
ACGTGATGGCAGTCTTCCTGCCCACAAGTTCTGGTC

>  <measured.target>
RUNX1 (UniProt Q01196)

>  <RUNX1 binding intensity>
1440

$$$$

Every entry's value here was drawn from the supplement of paper PMC10681739.
